system: HCT-116 colon; assay: NCI tumour cell line growth inhibition, 48 h
METRIC: TGI (µM)
// note: answer is a bare numeric in µM

Notebook: `CC(C)[C@H](COC(C)(C)C)N=CN1CSc2ccccc21` , TGI read as 79.2

The reported TGI of the compound `CN1C(=O)c2cccc3c([N+](=O)[O-])ccc(c23)C1=O` was 18.9

get_value(item= `CCN(CCc1ccc(F)cc1)c1ccc(CO)c(Cl)c1` , readout=TGI) returns 13.5

Per the records, this compound ( `COC(=O)/C1=C/C2CC(/C=C(/c3ccccc3)C(=O)O1)C2` ) has TGI equal to 56.6

For reference, reported TGI for `c1ccc2c(c1)[Se]c1ccccc1[Se]2` stands at 72.4

The reported value for `CN1CCN(c2ccc(NC3=C(Cl)C(=O)c4ncccc4C3=O)cc2C(F)(F)F)CC1` in terms of TGI is 3.27

response.value for `CC(C)(C)c1ccc(NC(=O)c2cc(=O)c3ccccc3[nH]2)c(C(C)(C)C)c1O` (field: TGI) = 13.4

The recorded TGI for entry `CN(C)CCNc1ccc2nnn3c4ccc(Cl)cc4c(=O)c1c23` equals 14.6

Lab note: measured TGI of `CCCCCn1ncc(-c2c(O)c(O)cc3c(O)c(-c4c(C)cc5c(-c6cnn(CCCCC)n6)c(O)c(O)cc5c4O)c(C)cc23)n1` was 4.07
